- Target System: UniProtKB P9WHJ3
- Procedure Details: Fluorescence Cell-Free Homogeneous Dose Retest to Identify Inhibitors of RecA-Intein Splicing Activity. [Related pubchem assays (depositor defined):AID2097, AID2223, AID489010, AID492950]
- Assay type: functional
Active and inactive are the calls of the source.
In this exercise, the only acceptable responses are active, inactive

1. O=C(CSc1nnc(Cc2ccccc2)o1)Nc1cccc(F)c1 : active
2. COC(=O)CCS(=O)(=O)c1nc(-c2ccccc2)cc(C(F)(F)F)n1 : active
3. CN(C)C(=S)N=Nc1[nH]c2ccccc2c1O : active
4. CC(=O)Oc1ccc(/C=C2/C(=O)N(c3ccccc3)N=C2C)cc1 : active
5. CCO/C(O)=C1/C(C)=NC2(O)c3ccccc3C(=O)C12O (stereo not drawn) : active
6. O=C(CN(c1cccc(Br)c1)S(=O)(=O)c1ccccc1)N/N=C/c1cc([N+](=O)[O-])ccc1O : inactive
7. O=C(O)c1ccc(NC2=C(Cl)C(=O)c3ccccc3C2=O)cc1 : active
8. CC(C)N(CC(=O)Nc1ccc(Cl)cc1C(F)(F)F)C(=O)CCl : active
9. O=C(O)c1ccc2c3c(ncnc13)-c1ccccc1C2=O : active
10. CC(=O)NC1C(=O)N(CCN2CCOCC2)c2ccc(Br)cc21 (stereo not drawn) : active

Given O=C1CC/[N+](=C\c2ccccc2Cl)[N-]1 , state the outcome it received in this test.
active

Given CS(=O)(=O)C1=NSC2=NC(=O)/C(=C\c3ccc(OC(=O)c4ccco4)cc3)C(=N)N21 , state the outcome it received in this test.
active

====

- Target System: UniProtKB Q9HAZ1
- Sequence (Q9HAZ1 whole entry): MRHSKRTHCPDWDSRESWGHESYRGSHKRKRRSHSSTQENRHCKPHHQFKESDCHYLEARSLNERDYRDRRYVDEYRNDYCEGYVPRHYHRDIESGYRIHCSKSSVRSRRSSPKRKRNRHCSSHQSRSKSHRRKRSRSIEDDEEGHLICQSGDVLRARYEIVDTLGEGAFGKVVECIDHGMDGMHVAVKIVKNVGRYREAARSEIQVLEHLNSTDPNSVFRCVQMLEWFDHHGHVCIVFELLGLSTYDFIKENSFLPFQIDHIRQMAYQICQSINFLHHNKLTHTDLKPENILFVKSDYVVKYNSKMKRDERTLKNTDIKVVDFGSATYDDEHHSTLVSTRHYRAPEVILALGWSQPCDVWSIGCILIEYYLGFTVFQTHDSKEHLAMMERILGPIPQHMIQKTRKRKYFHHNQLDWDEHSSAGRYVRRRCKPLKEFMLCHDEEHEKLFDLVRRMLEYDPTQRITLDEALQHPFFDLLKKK
- Assay type: functional
Activity calls are given as the source filed them.
Property Name: Ki

1. Cc1nn(C)c2sc3c(=O)[nH]cnc3c12 : 3.16 µM (active)
2. COc1cc2c(cc1F)C(c1ccccc1Cl)=Nc1c(n[nH]c1C)N2 : 1 µM (active)
3. Nc1nnc2cccc(Cl)n12 : 63.1 µM (active)

Could you now consider this next compound?
Entry Cc1ccc2nccc(NC(=O)Nc3cccc(C(F)(F)F)n3)c2c1 needs its Ki filled in; supply it.
0.1 µM (active)

====

- Procedure Details: intracellular Trypanosoma cruzi inhibitors in host cells – cell-based, plate reader, cherry-pick samples, set 3, dose response (AID 651818);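 note: compounds incubated with infected cells for about four days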
- Assay type: functional
Active and inactive are the calls of the source.
Item-by-item account of AC50

Entry C[C@@H]1CN([C@H](C)CO)C(=O)c2cccc(NC(=O)Nc3ccc(C(F)(F)F)cc3)c2O[C@@H]1CN(C)Cc1ccc(Cl)c(Cl)c1 needs its AC50 filled in; supply it.
2260 nM (active)

Entry C[C@H](CO)N1C[C@H](C)[C@H](CN(C)S(=O)(=O)c2cccs2)Oc2c(NC(=O)c3cnccn3)cccc2C1=O needs its AC50 filled in; supply it.
2440 nM (active)

Entry C[C@H]1CN([C@@H](C)CO)C(=O)Cc2cc(NC(=O)Nc3cccc4ccccc34)ccc2O[C@@H]1CN(C)Cc1ccc(C(F)(F)F)cc1 needs its AC50 filled in; supply it.
2300 nM (active)

Entry C[C@H](CO)N1C[C@H](C)[C@H](CN(C)Cc2ccc(Oc3ccccc3)cc2)Oc2c(NC(=O)CCCCCC(=O)Nc3ccccc3N)cccc2C1=O needs its AC50 filled in; supply it.
2360 nM (active)

====

- Target System: RNA-binding protein pos-1 (Caenorhabditis elegans, UniProt G5EF15)
- Procedure Details: inhibitors of POS-1/mex-3 RNA binding, dose response, biochemical, fluorescence polarization (AID 1964);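 note: purified POS-1 fused to maltose binding protein made in E. coli; potency of compounds blocking POS-1 binding to fluorescent RNA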
Activity calls are given as the source filed them.
Property Name: EC50

Consider the following illustrative entries.
1. O=S(=O)(c1cccc(-c2csc(-c3cccnc3)n2)c1)N1CCOCC1 : > 300 µM (not active)
2. CCOc1ccc(N/N=C2/C(=O)Nn3c2nc(C)cc3=O)cc1 : 213 µM (active)
3. Nc1c(C(=O)c2ccc(Br)s2)oc2ccccc12 : 71.8 µM (active)

Entry O=C(O)CCN1C(=O)/C(=C/c2ccc(-c3nc4ccccc4s3)o2)SC1=S needs its EC50 filled in; supply it.
32.3 µM (active)

Entry O=C(O)c1ccc2c3c(ncnc13)-c1ccccc1C2=O needs its EC50 filled in; supply it.
34.8 µM (active)

Entry CN1/C(=C/C=C(C#N)C#N)C(C)(C)c2ccccc21 needs its EC50 filled in; supply it.
248 µM (active)

====

Item-by-item account of AC50
- Procedure Details: P. falciparum Dd2 growth inhibitors, dose response, SYBR Green, cherry-picked samples (AID 1159567)
- Format: functional, cell-based
Active and inactive are the calls of the source.

Consider the following illustrative entries.
1) C[C@@H]1CN([C@H](C)CO)C(=O)c2cccc(NS(=O)(=O)c3ccccc3)c2O[C@H]1CN(C)Cc1ccc(Oc2ccccc2)cc1 : 6.14 µM (active)
2) O=C(c1ccccn1)N1CC(=O)N2[C@H](C1)[C@@H](c1ccc(C#CCc3ccccc3)cc1)[C@@H]2CO : 9.01 µM (active)
3) C[C@@H]1CN([C@@H](C)CO)S(=O)(=O)c2ccc(/C=C/c3ccccc3)cc2O[C@@H]1CN(C)C(=O)Nc1ccc(F)cc1 : 5.09 µM (active)
4) O=C(c1ccccc1F)N1CC(=O)N2[C@H](C1)[C@@H](c1ccc(-c3ccc(F)cc3)cc1)[C@@H]2CO : 1.41 µM (active)

Could you now consider this next molecule?
Entry CCCc1cn(CC[C@H]2CC[C@@H](NS(=O)(=O)c3ccc(-c4ccccc4)cc3)[C@H](CO)O2)nn1 needs its AC50 filled in; supply it.
1.31 µM (active)

====

- Target System: Tyrosyl-DNA phosphodiesterase 2 (Homo sapiens, UniProt O95551)
- Sequence (O95551 whole entry): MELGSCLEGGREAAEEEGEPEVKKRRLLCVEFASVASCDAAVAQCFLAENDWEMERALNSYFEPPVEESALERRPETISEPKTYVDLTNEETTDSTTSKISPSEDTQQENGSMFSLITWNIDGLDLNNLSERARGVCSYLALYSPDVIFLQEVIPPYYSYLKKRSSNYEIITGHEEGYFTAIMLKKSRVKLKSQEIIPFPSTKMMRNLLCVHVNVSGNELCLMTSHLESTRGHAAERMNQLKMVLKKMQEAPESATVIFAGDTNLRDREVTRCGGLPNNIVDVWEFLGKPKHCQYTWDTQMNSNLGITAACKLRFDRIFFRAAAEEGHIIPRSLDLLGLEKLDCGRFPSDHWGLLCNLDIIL
- Procedure Details: human TDP2 enzyme inhibitors, dose response, biochemical, epi absorbance, IC50 (AID 743297)
Active and inactive are the calls of the source.
In this exercise, the only acceptable responses are t (active), f (inactive)

Some solved entries appear below for comparison.
1) COc1cc(N)c2ncccc2c1Br : f
2) CC(=O)NC1C(=O)N(CCN2CCOCC2)c2ccc(Br)cc21 (centres undefined) : f
3) CCOC(=O)c1c2c(n(Cc3ccccc3)c1C)C(=O)C(=O)c1ccccc1-2 : t

Next up:
Given Nc1ccc2nn(-c3cccc4ccccc34)nc2c1 , state the outcome it received in this test.
f

====

- Target System: Tyrosine-protein kinase receptor TYRO3 (Homo sapiens);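 note: TYRO3 value obtained as one member of a kinome-wide profiling panel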
- Sequence (Q06418 whole entry): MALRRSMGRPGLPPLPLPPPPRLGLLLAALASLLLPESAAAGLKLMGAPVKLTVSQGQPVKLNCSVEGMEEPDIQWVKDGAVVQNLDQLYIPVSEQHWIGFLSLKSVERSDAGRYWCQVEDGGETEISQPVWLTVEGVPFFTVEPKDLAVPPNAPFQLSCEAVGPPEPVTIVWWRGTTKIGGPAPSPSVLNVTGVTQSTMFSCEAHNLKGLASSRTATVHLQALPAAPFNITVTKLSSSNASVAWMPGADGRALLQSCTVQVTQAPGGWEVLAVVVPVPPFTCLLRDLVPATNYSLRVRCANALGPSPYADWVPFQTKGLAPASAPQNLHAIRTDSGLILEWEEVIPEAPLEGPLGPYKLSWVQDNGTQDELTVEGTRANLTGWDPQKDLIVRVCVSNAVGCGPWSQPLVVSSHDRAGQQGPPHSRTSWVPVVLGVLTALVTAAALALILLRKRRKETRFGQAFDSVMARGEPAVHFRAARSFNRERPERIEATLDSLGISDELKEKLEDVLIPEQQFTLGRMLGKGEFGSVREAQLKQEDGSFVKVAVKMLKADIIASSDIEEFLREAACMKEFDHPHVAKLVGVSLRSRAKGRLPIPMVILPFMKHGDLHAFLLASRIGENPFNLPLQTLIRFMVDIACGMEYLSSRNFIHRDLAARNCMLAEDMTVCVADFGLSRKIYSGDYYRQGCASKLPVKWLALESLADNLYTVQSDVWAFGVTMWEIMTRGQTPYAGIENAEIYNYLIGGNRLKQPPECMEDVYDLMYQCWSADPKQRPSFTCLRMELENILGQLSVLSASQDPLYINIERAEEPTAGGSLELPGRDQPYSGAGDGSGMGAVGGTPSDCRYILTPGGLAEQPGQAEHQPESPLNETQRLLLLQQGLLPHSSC
- Assay type: functional
Calls of active or inactive are those of the source.
In this exercise, the only acceptable responses are true (1) for active, false (0) for inactive

1. COc1cc2c(cc1F)C(c1ccccc1Cl)=Nc1c(n[nH]c1C)N2 : false (0)
2. Cc1ccc2nccc(NC(=O)Nc3cccc(C(F)(F)F)n3)c2c1 : false (0)
3. O=c1[nH]c2cnc(Cl)nc2[nH]1 : true (1)

Given Nc1nnc2cccc(Cl)n12 , state the outcome it received in this test.
true (1)

====

- Target System: Luciferin 4-monooxygenase (Photinus pyralis)
- Sequence (P08659 whole entry): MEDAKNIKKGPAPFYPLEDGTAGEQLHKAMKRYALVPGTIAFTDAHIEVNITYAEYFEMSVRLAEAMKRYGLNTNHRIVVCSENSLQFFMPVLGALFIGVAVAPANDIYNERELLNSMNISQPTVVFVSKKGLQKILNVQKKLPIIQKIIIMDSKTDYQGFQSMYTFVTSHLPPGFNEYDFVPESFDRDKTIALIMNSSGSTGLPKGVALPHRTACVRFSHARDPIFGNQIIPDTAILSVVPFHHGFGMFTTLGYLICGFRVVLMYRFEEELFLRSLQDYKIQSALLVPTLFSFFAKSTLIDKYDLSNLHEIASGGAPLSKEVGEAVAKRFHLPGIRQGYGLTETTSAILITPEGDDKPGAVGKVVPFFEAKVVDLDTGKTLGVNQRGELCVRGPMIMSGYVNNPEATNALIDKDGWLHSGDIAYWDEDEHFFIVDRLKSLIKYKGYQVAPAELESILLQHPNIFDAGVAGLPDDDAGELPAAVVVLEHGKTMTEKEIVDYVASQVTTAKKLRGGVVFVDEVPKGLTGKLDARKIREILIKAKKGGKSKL
- Procedure Details: firefly luciferase enzyme inhibitors, dose response, biochemical, luminescence (AID 1891)
Activity calls are given as the source filed them.
Item-by-item account of EC50

1) CN(C)c1ccc(/C=N/Nc2nncc3ccccc23)cc1 : 1.11 µM (active)

Entry CCc1ccc(-n2c(S)nnc2Cc2ccccc2)cc1 needs its EC50 filled in; supply it.
> 112 µM (not active)

Entry CCOc1ccc(N/N=C2/C(=O)Nn3c2nc(C)cc3=O)cc1 needs its EC50 filled in; supply it.
0.535 µM (active)

Entry COc1cccc(-c2cn3nc(C)c(C)nc3n2)c1 needs its EC50 filled in; supply it.
19.7 µM (active)

Entry Cc1nc2cc(-c3ccccc3)sc2c(=O)n1N needs its EC50 filled in; supply it.
0.546 µM (active)

Entry CC(=O)Oc1ccc(-c2nc(-c3cccnc3)no2)cc1 needs its EC50 filled in; supply it.
8.16 µM (active)

Entry CCOC(=O)c1cc2nc(-c3ccco3)cc(C(F)(F)F)n2n1 needs its EC50 filled in; supply it.
> 112 µM (not active)

====

- Target System: UniProt:P49327
- Sequence (P49327 whole entry, the tested form may be a part): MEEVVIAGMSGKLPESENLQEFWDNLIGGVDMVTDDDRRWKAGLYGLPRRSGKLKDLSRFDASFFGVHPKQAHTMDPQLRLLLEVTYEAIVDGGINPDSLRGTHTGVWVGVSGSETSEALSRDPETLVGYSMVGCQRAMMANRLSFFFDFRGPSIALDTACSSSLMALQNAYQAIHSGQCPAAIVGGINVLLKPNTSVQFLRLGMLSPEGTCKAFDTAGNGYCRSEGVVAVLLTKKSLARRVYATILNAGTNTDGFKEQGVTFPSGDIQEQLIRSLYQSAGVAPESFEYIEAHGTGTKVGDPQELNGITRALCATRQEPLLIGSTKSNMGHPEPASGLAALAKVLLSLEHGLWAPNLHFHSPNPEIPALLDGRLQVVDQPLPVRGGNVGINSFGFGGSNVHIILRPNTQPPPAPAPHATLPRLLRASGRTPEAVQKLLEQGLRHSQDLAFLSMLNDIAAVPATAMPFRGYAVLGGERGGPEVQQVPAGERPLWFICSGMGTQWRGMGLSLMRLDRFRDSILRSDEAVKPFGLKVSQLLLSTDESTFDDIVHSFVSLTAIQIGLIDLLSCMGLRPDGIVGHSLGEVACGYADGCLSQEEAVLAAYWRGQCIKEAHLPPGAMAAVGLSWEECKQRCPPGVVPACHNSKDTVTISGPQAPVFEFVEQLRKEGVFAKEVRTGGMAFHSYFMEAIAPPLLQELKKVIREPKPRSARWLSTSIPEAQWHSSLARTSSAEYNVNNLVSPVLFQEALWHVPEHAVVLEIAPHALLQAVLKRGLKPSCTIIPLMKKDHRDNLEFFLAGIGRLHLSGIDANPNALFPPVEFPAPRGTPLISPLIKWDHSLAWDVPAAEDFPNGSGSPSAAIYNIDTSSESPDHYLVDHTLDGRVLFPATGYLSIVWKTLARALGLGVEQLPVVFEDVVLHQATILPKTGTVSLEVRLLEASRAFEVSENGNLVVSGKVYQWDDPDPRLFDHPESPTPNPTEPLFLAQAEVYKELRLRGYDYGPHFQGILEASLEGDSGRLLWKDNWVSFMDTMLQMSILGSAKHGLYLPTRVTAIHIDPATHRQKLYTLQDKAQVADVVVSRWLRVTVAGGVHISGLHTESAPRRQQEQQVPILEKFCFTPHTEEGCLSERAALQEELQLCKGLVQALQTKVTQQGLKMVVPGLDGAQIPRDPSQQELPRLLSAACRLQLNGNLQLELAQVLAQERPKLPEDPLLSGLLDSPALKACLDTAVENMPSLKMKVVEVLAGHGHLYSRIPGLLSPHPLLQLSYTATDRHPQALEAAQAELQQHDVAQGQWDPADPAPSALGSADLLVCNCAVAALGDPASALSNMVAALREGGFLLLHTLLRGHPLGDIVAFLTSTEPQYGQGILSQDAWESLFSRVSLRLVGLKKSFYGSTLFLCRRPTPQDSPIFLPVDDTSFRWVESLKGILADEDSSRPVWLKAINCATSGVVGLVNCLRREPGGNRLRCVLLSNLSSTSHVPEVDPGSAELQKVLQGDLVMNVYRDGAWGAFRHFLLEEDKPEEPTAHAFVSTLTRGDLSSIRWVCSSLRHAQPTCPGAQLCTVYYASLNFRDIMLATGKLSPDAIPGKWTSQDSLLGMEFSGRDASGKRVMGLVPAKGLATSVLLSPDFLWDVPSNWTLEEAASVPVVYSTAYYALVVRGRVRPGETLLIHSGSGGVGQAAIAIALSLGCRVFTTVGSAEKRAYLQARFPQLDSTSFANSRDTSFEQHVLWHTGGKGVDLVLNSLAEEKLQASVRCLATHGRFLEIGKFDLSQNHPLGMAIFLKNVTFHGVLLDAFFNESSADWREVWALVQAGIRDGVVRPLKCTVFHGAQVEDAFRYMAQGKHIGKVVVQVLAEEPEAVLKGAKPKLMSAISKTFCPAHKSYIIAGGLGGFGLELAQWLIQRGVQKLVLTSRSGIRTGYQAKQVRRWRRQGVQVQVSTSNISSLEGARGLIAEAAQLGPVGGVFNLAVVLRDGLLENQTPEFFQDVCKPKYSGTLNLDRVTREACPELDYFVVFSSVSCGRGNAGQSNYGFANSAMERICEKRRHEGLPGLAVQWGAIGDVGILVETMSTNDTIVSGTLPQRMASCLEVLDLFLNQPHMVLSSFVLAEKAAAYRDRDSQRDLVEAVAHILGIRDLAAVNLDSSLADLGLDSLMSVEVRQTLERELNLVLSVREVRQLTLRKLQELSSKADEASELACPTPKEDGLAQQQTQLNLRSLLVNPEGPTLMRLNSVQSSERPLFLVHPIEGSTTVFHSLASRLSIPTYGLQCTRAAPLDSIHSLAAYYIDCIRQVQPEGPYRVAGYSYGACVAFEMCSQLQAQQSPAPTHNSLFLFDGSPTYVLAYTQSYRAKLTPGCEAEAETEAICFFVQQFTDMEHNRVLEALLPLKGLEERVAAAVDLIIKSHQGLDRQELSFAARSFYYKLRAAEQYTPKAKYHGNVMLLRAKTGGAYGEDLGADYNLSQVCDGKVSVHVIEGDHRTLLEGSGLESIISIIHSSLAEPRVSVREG
- Procedure Details: FAS thioesterase domain inhibitors, dose response, biochemical, kinetic fluorescence intensity (AID 624326);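 note: rate of fluorescence rise from hydrolysis of a fluorogenic O-methyl fluorescein ester substrate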
- Format: functional
Calls of active or inactive are those of the source.
Property Name: IC50

Consider the following illustrative entries.
1. O=C(NNc1cccc([N+](=O)[O-])c1)/C(=C\c1cccnc1)NC(=O)c1ccccc1 : 4.39 µM (active)
2. C/C(=N/Nc1ccc(C(=O)O)cc1)c1ccc2c(c1)Nc1ccccc1S2 : 11.1 µM (active)
3. CCc1ccc(C(=O)COC(=O)c2cc([N+](=O)[O-])ccc2NCCO)cc1 : 3.82 µM (active)
4. O=C1NC(=O)/C(=C2\C(=O)Nc3ccc([N+](=O)[O-])cc32)S1 : 9.24 µM (active)

Entry O=C(Cn1nc2ccccc2n1)N/N=C/c1cc([N+](=O)[O-])ccc1O needs its IC50 filled in; supply it.
5.14 µM (active)

Entry COc1cc(/C=C(\C#N)c2nc3ccccc3s2)cc([N+](=O)[O-])c1O needs its IC50 filled in; supply it.
10 µM (active)

Entry CCOC(=O)[C@]12Cc3cc(C)ccc3[C@H]1N(C1CCCCC1)C(=O)c1cc(OC)ccc12 needs its IC50 filled in; supply it.
6.32 µM (active)

Entry N#CC1CCN(C(=O)c2ccc3c(Cl)c4c(nc3c2)CCCC4)CC1 needs its IC50 filled in; supply it.
1.89 µM (active)
